Metric: melting point

Recorded results for 5 compounds are shown here.
compound="CC(=O)Oc1ccc(C(=O)c2cnn(C)c2O)c(Cl)c1N=S1(=O)CCCCC1 [Example 189]" metric="melting point" result_value="135 to 139 °C"
compound="O=C1CCCC(O)=C1C(=O)c1ccc(-c2ccccc2)c(N=S2(=O)CCCCC2)c1Cl [Example 23]" metric="melting point" result_value="166 to 168 °C"
compound="C#CCOc1c(C(=O)c2ccc(OC)c(N=S3(=O)CCCCC3)c2Cl)cnn1C [Example 123]" metric="melting point" result_value="146 to 148 °C"
compound="CCS(=O)(CC)=Nc1c(C)ccc(C(=O)c2cnn(C)c2O)c1C [Example 167]" metric="melting point" result_value="126 to 128 °C"
compound="COc1ccc(C(=O)c2c(C)nn(C)c2O)c(Cl)c1N=S1(=O)CCCCC1 [Example 250]" metric="melting point" result_value="138 to 140 °C"

// next item, melting point requested
// query melting point value for entry COc1ccc(C(=O)c2cnn(C)c2[O-])c(Cl)c1N=S1(=O)CCCCC1.[Na+] [Example 115]
224 to 226 °C
